# Test settings: in acetone, 303.15 K
Measured endpoint: solubility (mole fraction)
# answer = number (no unit)

Request: Can you look up the measured solubility (mole fraction) of O=C(O)CNCc1ccccc1 for me?
Response: 0.000133

---

# Test settings: in water, 313.15 K
Measured endpoint: solubility (mole fraction)

Request: Name the reported solubility (mole fraction) value associated with the compound O=C(O)CNCc1ccccc1
Response: 0.0169

---

# Test settings: in water, 303.15 K
Measured endpoint: solubility (mole fraction)

Request: Any idea what solubility (mole fraction) was measured for O=C(O)CNCc1ccccc1 ?
Response: 0.014

---

# Test settings: in acetone, 283.15 K
Measured endpoint: solubility (mole fraction)
Number only, no unit.

Request: // query solubility (mole fraction) value for entry O=C(O)CNCc1ccccc1
Response: 7.1e-05
